# Test target: rat CPT-1 (Rattus norvegicus, UniProt Q63704)
# Construct: made in house; host or cells: Pichia pastoris GS115 (isolated intact mitochondria)
# Sequence (Q63704 1-772): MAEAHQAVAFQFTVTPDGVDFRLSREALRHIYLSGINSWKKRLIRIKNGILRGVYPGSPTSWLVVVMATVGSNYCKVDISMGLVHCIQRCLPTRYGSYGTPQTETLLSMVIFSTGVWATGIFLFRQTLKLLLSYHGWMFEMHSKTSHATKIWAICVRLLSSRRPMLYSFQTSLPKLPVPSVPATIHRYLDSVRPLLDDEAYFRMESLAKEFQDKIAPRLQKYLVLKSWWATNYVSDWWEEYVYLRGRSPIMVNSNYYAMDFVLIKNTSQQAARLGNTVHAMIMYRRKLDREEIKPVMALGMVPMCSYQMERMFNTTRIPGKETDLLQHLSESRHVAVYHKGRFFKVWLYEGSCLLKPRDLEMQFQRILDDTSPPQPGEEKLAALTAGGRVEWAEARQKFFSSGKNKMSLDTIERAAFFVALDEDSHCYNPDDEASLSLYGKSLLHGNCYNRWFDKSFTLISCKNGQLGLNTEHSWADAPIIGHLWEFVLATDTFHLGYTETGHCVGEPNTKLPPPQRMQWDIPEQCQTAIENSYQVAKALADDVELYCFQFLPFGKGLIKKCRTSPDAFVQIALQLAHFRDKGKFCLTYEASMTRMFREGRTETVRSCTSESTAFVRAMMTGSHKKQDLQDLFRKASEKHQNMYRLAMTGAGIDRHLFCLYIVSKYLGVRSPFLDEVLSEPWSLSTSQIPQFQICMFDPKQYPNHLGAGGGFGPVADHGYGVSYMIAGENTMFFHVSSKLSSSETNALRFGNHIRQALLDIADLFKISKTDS
# Assay procedure: Carnitine palmitoyltransferase 1 (CPT-1) assay, yeast mitochondria
# Type: biochemical
# Set-up: concentration or dose not given beside the values
# Details: % of DMSO control, mitochondria of P. pastoris expressing rat CPT-1

- Molecule: "O=C(Oc1ccc(OC(=O)c2cc(O)c(O)c(O)c2)c(-c2ccccc2)c1)c1cc(O)c(O)c(O)c1 [o]"
  Test target: "rat CPT-1 (Rattus norvegicus, UniProt Q63704)"
  % CPT-1 activity (%): 86.80
- Molecule: "O=C(O[C@@H]1Cc2c(O)cc(O)cc2O[C@@H]1c1cc(O)c(O)c(O)c1)c1cc(O)c(O)c(O)c1 [EGCG, (−)-epigallocatechin-3-gallate, reference compound]"
  Test target: "rat CPT-1 (Rattus norvegicus, UniProt Q63704)"
  % CPT-1 activity (%): 81
- Molecule: "O=C(Oc1cc2ccccc2cc1OC(=O)c1cc(O)c(O)c(O)c1)c1cc(O)c(O)c(O)c1 [e]"
  Test target: "rat CPT-1 (Rattus norvegicus, UniProt Q63704)"
  % CPT-1 activity (%): 87.91
- Molecule: "O=C(Oc1ccc(-c2ccc(OC(=O)c3cc(O)c(O)c(O)c3)cc2)cc1)c1cc(O)c(O)c(O)c1 [q]"
  Test target: "rat CPT-1 (Rattus norvegicus, UniProt Q63704)"
  % CPT-1 activity (%): 84.38
- Molecule: "O=C(Oc1cc(OC(=O)c2cc(O)c(O)c(O)c2)c2ccccc2c1)c1cc(O)c(O)c(O)c1 [f]"
  Test target: "rat CPT-1 (Rattus norvegicus, UniProt Q63704)"
  % CPT-1 activity (%): 89
- Molecule: "O=C(Oc1ccc(OC(=O)c2cc(O)c(O)c(O)c2)c2ccccc12)c1cc(O)c(O)c(O)c1 [i]"
  Test target: "rat CPT-1 (Rattus norvegicus, UniProt Q63704)"
  % CPT-1 activity (%): 90
